Values were extracted from the nanobody polyreactivity screen of Harvey et al. (2022).

# test_protocol: yeast display, Sf9 membrane polyspecificity reagent, FACS + sequencing; frameworks hold sequencing errors
recorded_endpoint: polyreactivity (PSR sort gate)

// worked examples, polyreactivity (PSR sort gate) included
| biosequence | reported_result |
| --- | --- |
| QVQLVESGGGLVQAGGSLRLSCAASGSTFYLNAMGWYRQAPGKEREFVAAIRGGGTSTRYADSVKGRFTISRDNAKNTVYLQMNSLKPEDTAVYFCAAPRVVYRGDYWGQGTQVTVSS | high polyreactivity |
| QVQLVESGGGLVQAGGSLRLSCAASGSTFSANAMGWYRQAPGKERELVAAITYRGGNTYYADSVKGRFTISRDNAKNTVYLQMNSLKPEETAVYYCNRDLRVRYRRLKYGYWGQGTQVTVSS | low polyreactivity |
| QVQLVESGGGLVQAGGSLRLSCAASGLIFRVNAMGWYRQAPGKERELVADINSGGGTSYADSVKGRFTISRDNAKNTVYLQMNSLKPEDTAVYYCAAAWWPYSYPTYYSQYDYWGQGTQVTVSS | low polyreactivity |
| QVQLVESGGGLVQAGGSLRLSCAASGITFYGYAMGWYRQAPGKERELVARITISGRTNYADYVKGRFTISRDNAKNTVYLQMNSLKPEDTAVYYCATLVHWSYPYYYWGQGTQVTVSS | high polyreactivity |
| QVQLVESGGGLVQAGGSLRLSCAASGRIFWYYAIGWYRQAPGKEREIVAAISRSGGTTYYADSVKGRFTISRDNAKNTVYLQMNSLKPEDTAVYYCAAVYHAYTGYEAWYEYDYWGQGTQVTVSS | high polyreactivity |

Each of the following entries comes with a recorded value; kindly state polyreactivity (PSR sort gate) for each.
1. QVQLVESGGGLVQAGGSLRLSCAASGFIFSYYALGWYRQATGKERELVAAITYSGVRTYYADSVKGRFTISRDNAKNTVYLQMNSLKPVDTAVYYCNTKHRTKPTRPDDYWGQGTQVTVSS
2. QVQLVESGGGLVQAGGSLRLSCAASGLTYAKYVMRWYRQAPGNERELVAAISRSGGSTFYADSVKGRFTISRDNAKNTVYLQMNSLKPEDTAVYYCAAAAWDPKGSRYDYWGQGTQVTVSS
3. QVQLVESWGGLVQAGGSLRLSCAASGSNFELYAMGWYRQAPGKERELVASITWSASNTHYADSVKGRFTISRDNAKNTVYLQINSLKTEDTAVYYCAKDVLYGLFDGDSWGQGTQVTVSS
4. QVQLVESGGGLVQAGGSLRLSCAASGRTFDVYAMGWYRQAPGKEREFVASITRSGASTYADSVKGRFTISRDNAKNTVYLQMNSLKPEDTAVYYCNAELDLDTGWDGFVAYDYWGQGTQVSVSS
5. QVQLVESGGGLVQAGGSLRLSCAASGFIFFTYAMGWYRQAPGKERELVAAISSRGGSTYYADSVQGRFTISRDNAKKTVYLQMNSLKPEDTAVYYCAAQAYGGYPYGYWGQGTQVTVSS
6. QVQLVESGGGLVQAGGSLRLSCAAYGSTLDGNAMGWYRQAPGKERELVAGLDTGGSTYYADSVKGRFTISRDNAKYTVYLQLIRLKPEDTAVYDCAATDREDYDYWGQGTQVTVSS

OUTPUT:
high polyreactivity
low polyreactivity
low polyreactivity
low polyreactivity
high polyreactivity
low polyreactivity

Each of the following entries comes with a recorded value; kindly state polyreactivity (PSR sort gate) for each.
1. QVQLVESGGGLVQAGGSLRLSCAASGSTFETYAMGWYRQAPGKEMELVAAISKTGARTYYADSVKGRFTISRDNAKNTVYLQMNSLKPEDTAVYYCAAERKAHRKPHSRVDKYYYWGQGTQVTVSS
2. QVQLVESGGGLVQAGGSLRLSCAASGYTFVVYAMGWYRQAPGKERELVARISSGGSTFYADSVKGRFTISRDNAKNTVYLQMNSLKPEDTAVYYCAAQWTRYRRRPMDYWGQGTQVTVSS
3. QVQLVESGGGLVQAGGSLRLSCAASGRTFYYYAMGSYRQAPGKEREFVAAITTRGGSTYYADSVKGRFTISRDNAKNTVYLQMNSLKPEDTAVYYCAARSYYQGGYYYWGQGTQVTVSS
4. QVQLVESGGGLVQAGGSLRLSCAASGRIFAPYAMGWYRQAPGKEREFVATITHSGGRTYYADSVKGRFTISRDNAKNNVYLQMNSLKPEHTAVYYCAAGYGYNRLYYGVDYWGQGTQVTVSS

OUTPUT:
1. high polyreactivity
2. high polyreactivity
3. high polyreactivity
4. low polyreactivity

Each of the following entries comes with a recorded value; kindly state polyreactivity (PSR sort gate) for each.
1. QVQLEESGGGLVQAGGRLRLSCAASGSTFDPNTMGWYRQAPGKERELVATITSVDSTNYADSVKGRFTISRDNAKNTVYLQMNSLKPEDTAVYYCNAAYGGVFFYAYDYWGQGTQVTVSS
2. QVQLVESGGGLVQAGGSLRLSCAASGSTIWSNAMGWYIQAPGKERELVAVISGGTSTNYADSVKGRFTISRDNAKNTVYLQMNSLKPEDTAVYYCAADWGSYLILINDTEMDYWGQGTQVTVSS
3. QVQLVESGGGFVQAGGSLRLSCAASGRTIPYYAMGWYRQARGKEWELVATISTGDSTYYADSVKGRFTISRDNAKNTLYLQMNSLKPEATAVYSCAKDRYTYWSVHAFRRLDYWGKGTQVTVSS
4. QVQLVESGGGLVQAGGSLRLRCAASGSSFTGYAMGLYRQAPGKEREFVAAICWTGVSTYYADSVKGSFTISRDNAKNTVYLQMNSLKPEDTAVYYCAVDYVLRDRDLFYIIMEYWGQGTQVTVSS
5. QVQLVESGGGLVQAGGSLRLSCAASGSTFSNNAMGWYRQAPGKERELVAAITRRGTSTYYADSVKGRFTISRDNAKNTVYLQMISLKPEDTAVYYCAAVYKLRHKRPSYGSWGQGTQVTVSS
6. QVQLVESGGGLVQAGGSLRLSCAASGSTFYKNSMGWYRQAPGKERELVATISASSTSTYYADSVKGRFTISRDNAKNTVYLQMNSLKPEATAVYYCSKVYVHGSTYGYYWYGYDYWGQGTQVTVSS

OUTPUT:
1: low polyreactivity; 2: low polyreactivity; 3: low polyreactivity; 4: low polyreactivity; 5: high polyreactivity; 6: low polyreactivity
